Recorded NF-kB SEAP reporter activity, one value per entry.
# Test system: RAW-Dual
# experimental protocol: NF-kB SEAP reporter activity, fold change vs agonist alone; cytotoxicity flag (confluency mask): not cytotoxic; higher = enhanced NF-kB activity
# test conditions: agonist: Pam3CSK4 (TLR2/1) 0.1 ug/mL
Whole data set: some 2,900 compounds, median “NF-kB SEAP reporter activity, fold change vs agonist alone” near 0.99, cut for the highest 2% near 2.6. For the sample, the highest values were picked, then their nearest neighbours and some compounds at random.
// print number alone

molecule	assayed target	obs value
Oc1c(F)cc(-c2cnccc2-c2ccc(N3CCOCC3)cc2)cc1F (library stock concentration (final ~1000-fold dilution): 10 mM)	RAW-Dual	0.73
Nc1nc(NCCNc2ncc(-n3ccnc3)c(-c3ccc(Cl)cc3Cl)n2)ccc1[N+](=O)[O-] (library stock concentration (final ~1000-fold dilution): 10 mM)	RAW-Dual	2.83
COc1cc(C(=O)N2CCC(N3CCN(C)CC3)CC2)ccc1Nc1ncc2c(n1)N(C)c1ccccc1C(=O)N2C (library stock concentration (final ~1000-fold dilution): 10 mM)	RAW-Dual	2.01
C[C@@H]1O[C@@H](O[C@H]2[C@H](OC(=O)[C@]34CCC(C)(C)C[C@H]3C3=CC[C@@H]5[C@@]6(C)C[C@H](O)[C@H](O[C@@H]7O[C@H](CO)[C@@H](O)[C@H](O)[C@H]7O)[C@@](C)(CO)[C@@H]6CC[C@@]5(C)[C@]3(C)CC4)O[C@H](CO)[C@@H](O)[C@@H]2O)[C@H](O)[C@H](O)[C@H]1O[C@@H]1OC[C@@H](O)[C@H](O)[C@H]1O (library stock concentration (final ~1000-fold dilution): 10 mM)	RAW-Dual	1.19

Challenge: Return NF-kB SEAP reporter activity for the following molecule: CC(C)(C)c1[nH]cnc1C=c1[nH]c(=O)c(=Cc2ccccc2)[nH]c1=O (library stock concentration (final ~1000-fold dilution): 10 mM)
Response given: 2.3

----------
# Tested on: RAW-Dual
# experimental protocol: NF-kB SEAP reporter activity, fold change vs agonist alone; higher = enhanced NF-kB activity
# test conditions: library stock concentration (final ~1000-fold dilution): 10 mM; cytotoxicity flag (confluency mask): not cytotoxic; agonist: Imiquimod (TLR7) […]
Whole data set: some 2,900 compounds, median “NF-kB SEAP reporter activity, fold change vs agonist alone” near 0.99, cut for the highest 2% near 2.6. What follows is part of a selection rich in the highest values, with near analogues and random picks from the rest.
metric name: NF-kB SEAP reporter activity
Answer with a bare number; do not write a unit.

Reference set, count: 4
molecule	NF-kB SEAP reporter activity
CC(C)CC(NC(=O)C(CCc1ccccc1)NC(=O)CN1CCOCC1)C(=O)NC(Cc1ccccc1)C(=O)NC(CC(C)C)C(=O)C1(C)CO1 (stereo not given)	2.33
OCCn1cc(-c2ccc3c(c2)CC/C3=N\O)c(-c2ccncc2)n1	1.65
c1cncc(-c2c[nH]nn2)c1	0.995
CN(C)CCOc1ccc(-c2nc(-c3ccncc3)c(-c3ccc4c(c3)CC/C4=N\O)[nH]2)cc1	0.946

Challenge: Report NF-kB SEAP reporter activity for CCCC(NC(=O)/C(C#N)=C/c1cccc(Br)n1)c1ccccc1 (stereo not given)
Response given: 0.971

----------
Entries and their measured NF-kB SEAP reporter activity follow.
# Tested on: RAW-Dual
# experimental protocol: NF-kB SEAP reporter activity, fold change vs agonist alone; cytotoxicity flag (confluency mask): not cytotoxic; higher = enhanced NF-kB activity
# test conditions: agonist: ODN 1826 (TLR9) 0.5 ug/mL
In all, about 2,900 compounds were measured (“NF-kB SEAP reporter activity, fold change vs agonist alone”: median about 0.99, highest 2% from about 2.6 on). The full list was thinned out, with the highest values kept by preference.
Note: the reply should be a number with no unit written.

Sample records with NF-kB SEAP reporter activity:
compound	obs value
Cl.N=c1ccn2c(n1)OC1C(O)C(CO)OC12 (configuration not stated) (library stock concentration (final ~1000-fold dilution): 10 mM)	1.89
CC(C)(C)NCC(O)COc1ccccc1C1CCCC1.CC(C)(C)NCC(O)COc1ccccc1C1CCCC1.O=S(=O)(O)O (configuration not stated) (library stock concentration (final ~1000-fold dilution): 10 mM)	1.08
O=C(Nc1ncc([N+](=O)[O-])s1)c1ccccc1O (library stock concentration (final ~1000-fold dilution): 10 mM)	1.21

Alright, here's another compound for you.
Challenge: Report NF-kB SEAP reporter activity, nothing else, for this compound: COc1cc(CCC(O)CC(O)CCc2ccc(O)c(OC)c2)ccc1O (configuration not stated) (library stock concentration (final ~1000-fold dilution): 10 mM)
Response given: 1.15
